Tested on: SK-MEL-5 melanoma
EXPERIMENT SUMMARY: NCI-60 one-dose screen, 48 h
CONDITION INFO: 10 µM unless noted
About 83,000 compounds went through this panel and 20% of them were active in at least one assay; those are over-represented in the sample as a whole. Active and inactive are the calls of the source. Rule for the calls: active = growth percent below 10; inactive = the rest.
Classes used: active, inactive

MOLECULE	QUALITATIVE LABEL
CN(C)CC(=O)Nc1ccc(Cn2nnc3c2C(=O)c2nnn(Cc4ccc(NC(=O)CN(C)C)cc4)c2C3=O)cc1	active
O=C1CC(c2nc3ccccc3s2)CN1C1CCCCC1 (stereo not given)	inactive
Cc1nc2sc(C(=O)Nc3cccc4c3OCCO4)c(N)c2cc1C(C)O (stereo not given)	inactive
COCCCN=C(N)c1ccc(NC(=O)c2ccc(C(=O)Nc3ccc(C(N)=NCCCOC)cc3)cc2)cc1	inactive
COc1ccc(S(=O)(=O)NCCCNc2nccc(-c3c(-c4cccc(N)c4)nc4sccn34)n2)cc1	inactive

* * *

System: UACC-62 melanoma
EXPERIMENT SUMMARY: NCI-60 one-dose screen, 48 h (100 = growth as untreated, 0 = no growth, -100 = all killed)
CONDITION INFO: 10 µM unless noted
About 83,000 compounds went through this panel and 20% of them were active in at least one assay; those are over-represented in the sample as a whole.
Grouping by measured growth is done with the following cut points: lower = under 20%, middle = from 20% up to 70%, upper = 70% and over

COMPOUND	QUALITATIVE LABEL
CC(=O)O[C@H]1CC[C@]2(C)[C@H]3CC[C@@H]4[C@H]5[C@H](C(C)C)CC[C@]5(C(=O)OCC(CO)(CO)N=C(N)N)CC[C@@]4(C)[C@]3(C)CC[C@H]2C1(C)C	upper
C=C1C(=O)O[C@H]2[C@H]1CC/C(Cn1cc(Cn3ccc4ccccc43)nn1)=C\CC[C@@]1(C)O[C@@H]21	middle
COc1cc2nc3cc([N+](=O)[O-])ccc3c(NCCCNCC(C)(C)O)c2cc1OC	lower
COc1ccc(CCN2CCCn3c2nc2ccccc2c3=O)cc1	middle
C[C@@H]1CC[C@@H]2[C@@H]1[C@H](OC(=O)/C=C/c1ccccc1)[C@]1(c3ccccc3)C[C@@H](OC(=O)CO)[C@@]2(C)O1	upper
COc1cc2c(c(OC)c1OC)-c1ccc(N=NC(N)=S)c(=O)cc1[C@@H](NC(C)=O)CC2	lower
O=C(N/N=C/c1ccc(O)cc1O)c1cccnc1	middle
CN1Cc2c(cc(CN3CCCCC3)n2C)C(c2ccc(Br)cc2)C1 (stereo not drawn)	lower
C=C1CC[C@@H]2[C@](C)(COC(C)=O)[C@H](OC(C)=O)CC[C@@]2(C)[C@@H]1CC(Nc1ccc(S(=O)(=O)Nc2ccc(Cl)nn2)cc1)C1=CCOC1=O (stereo partly drawn)	lower
O=C(O)c1ccc2c(c1Sc1ccccc1)C(=O)c1ccccc1C2=O	upper
Cc1ccc(/C=C2\Oc3cc(OCC(=O)c4ccc(Cl)cc4)ccc3C2=O)cc1	upper
O=C(Cc1ccccc1)c1ccc(Cl)cc1	upper
CC1=C(C)C(=O)OC([C@](C)(O)[C@]2(O)CC[C@@]3(O)[C@@H]4C[C@H]5O[C@]56CC=CC(=O)[C@]6(C)[C@H]4CC[C@]23COC(=O)c2ccc(C)o2)C1 (stereo partly drawn)	lower
COc1ccc(-c2cc(C(=O)N=Nc3c(O)[nH]c4ccccc34)no2)cc1	upper
C=C1CC2(OC1=O)C(=O)N(CCCCCCCN1C(=O)C3(CC(=C)C(=O)O3)c3ccccc31)c1ccccc12 (stereo not drawn)	middle
CCOC(=O)C(C#N)C1CCCCC1 (stereo not drawn)	upper
Cn1cc(-c2csc(-c3cn(C)c4ncccc34)n2)c2ccccc21	middle
Cc1ccc2c(c1)C(=O)/C(=C/c1ccc(OCC(=O)c3ccccc3)cc1)O2	middle
COc1ccc(S(=O)(=O)NCCNc2nccc(-c3c(-c4cccc([N+](=O)[O-])c4)nc4sccn34)n2)cc1	upper
C/C(=C(/c1ccc(O)cc1)c1ccc(OCCN2CCCC2)cc1)c1ccccc1	lower
CC(C)n1cc2c(N)ncnc2n1	upper
C=CC[N+]1(CC)CCN=C1CCCCCCCCCCCCCCCCC (stereo not drawn)	lower
CCOC(=O)/C=C/C(=O)[C@H](CC(C)C)NC(=O)[C@H](Cc1ccccc1)NC(=O)OCc1ccccc1	lower
Cc1ccn2c(-c3csc(Nc4cccc(O)c4)n3)c(C)nc2c1	middle
Cc1cc(OCc2ccc(C(F)(F)F)cc2)c2c(c1)C(=O)C=C(NCCN1CCCC1)C2=O	upper
Cc1ccc2c(c1)O/C(=C\c1cccc(OCC(=O)c3ccccc3)c1)C2=O	middle
O=C(CO[N+](=O)[O-])Nc1ccc(C(=O)/C=C/c2ccc3c(c2)OCO3)cc1	upper
COc1cc(-c2cc(-c3nc4ccc(Cl)cc4[nH]3)[nH]n2)cc(OC)c1OC	middle
CCCC(=O)Oc1ccc(/C(=C(/CC)Cc2ccccc2)c2ccc(OCCN3CCCC3)cc2)cc1	middle
O=C(/C=C/c1cc2ccccc2[nH]c1=O)/C=C/c1cc2ccccc2[nH]c1=O	lower
CNCCCn1c2c(c3ccc([N+](=O)[O-])cc3c1=O)C(=O)c1cc(OC)cnc1-2	lower
COc1cccc(-c2cn3c(ccc4ccccc43)n2)c1	middle
Cn1cc(-c2nc(-c3c[nH]c4ccccc34)cs2)c2cccnc21	middle
C[C@@H]1CC[C@@H]2[C@@H]1[C@H](OC(=O)/C=C/c1ccccc1)[C@]1(C3CCCCC3)C[C@@H](OC(=O)CO)[C@@]2(C)O1	upper
C=C1CCC2C3(C)COC(c4cccc(Cl)c4)OC3CCC2(C)C1/C=C/C1=CCOC1=O (stereo not drawn)	middle
Cc1csc2ccc(Cl)cc12	upper
C(=N\Nc1ccccn1)/c1ccccn1	lower

* * *

Known growth of a selection of compounds
Tested on: COLO 205 colon
EXPERIMENT SUMMARY: NCI-60 one-dose screen, 48 h (100 = growth as untreated, 0 = no growth, -100 = all killed)
CONDITION INFO: 10 µM unless noted
About 83,000 compounds went through this panel and 20% of them were active in at least one assay; those are over-represented in the sample as a whole. The source made the active and inactive calls. Rule for the calls: active = growth percent below 10; inactive = the rest.

COMPOUND	growth
C=C1CC[C@@H]2[C@](C)(COC(C)=O)[C@H](OC(C)=O)CC[C@@]2(C)[C@@H]1CC(NCc1ccc(F)cc1)C1=CCOC1=O (stereo not given in full)	42.2% (inactive)
COc1ccc(CN2C(=O)/C(=C\c3cc(OC)c(OC)c(OC)c3)c3cc(OC)ccc32)cc1	-46.3% (active)
COc1cc(-c2nc3ccccc3s2)ccc1NC(=O)COc1ccc(Cl)cc1	52.8% (inactive)
Nc1cccc(-c2nc3sccn3c2-c2ccnc(NCCCNS(=O)(=O)c3ccc(C(F)(F)F)cc3)n2)c1	6.24% (active)
COc1cc(OC)c(/C=C/C(=O)c2c(OC)cc(OC)cc2OC)c(OC)c1	-6.76% (active)

* * *

Test system: SF-268 CNS
EXPERIMENT SUMMARY: NCI-60 one-dose screen, 48 h (100 = growth as untreated, 0 = no growth, -100 = all killed)
CONDITION INFO: 10 µM unless noted
About 83,000 compounds went through this panel and 20% of them were active in at least one assay; those are over-represented in the sample as a whole. Active and inactive are the calls of the source. The calls were made as follows: active = growth percent below 10; inactive = the rest.
# growth annotations
PARAMETER: growth

MOLECULE	PARAMETER	REPORTED
Oc1cc(O)c2c(=S)cc(-c3ccc(Cl)cc3)oc2c1	growth	36.8% (inactive)
NS(=O)(=O)N(c1cc(C(F)(F)F)cc(C(F)(F)F)c1)C1CCN(Cc2ccc(F)cc2)CC1	growth	79.9% (inactive)
CC(=O)C1=C(O)C=C2Oc3c(C(=O)/C=C/c4cc(C(F)(F)F)cc(C(F)(F)F)c4)c(O)c(C)c(O)c3[C@]2(C)C1=O	growth	-18.1% (active)
COc1ccc(-c2cc(=O)[nH]c3c(OC)c4ccccc4c(OC)c23)cc1	growth	34.8% (inactive)
CCCCCN(CCCCC)CCC[C@@H](C)[C@H]1CC[C@H]2[C@@H]3[C@H](OCCCN)C[C@@H]4C[C@H](OCCCN)CC[C@]4(C)[C@H]3C[C@H](OCCCN)[C@]12C	growth	87.5% (inactive)
O=C1Nc2ccccc2C12CC(c1ccccc1)=NN2 (centres undefined)	growth	67.1% (inactive)
Cc1ccc(Nc2nc(N)nc(Nc3ccc4ccccc4c3)n2)cc1	growth	46.3% (inactive)
CCN(CC)CCCC(C)N/C(=C1\C(=O)NC(=O)\C1=C(/NC(C)CCCN(CC)CC)c1cccc(OC)c1)c1cccc(OC)c1 (centres undefined)	growth	-24% (active)
CC1=CC(=O)CC(C)(C)[C@@]1(O)/C=C/[C@@H](C)O	growth	98.1% (inactive)
C#Cc1nc2ccccc2c(=O)[nH]1	growth	-70.4% (active)
COc1ccc(-n2cc(-c3ccccc3)c3c(SCC(=O)N/N=C/c4ccc([N+](=O)[O-])cc4)ncnc32)cc1	growth	98.5% (inactive)
CC1=NNC(=O)C1C (centres undefined)	growth	107% (inactive)
CC/C(=C(\c1ccccc1)c1ccc(OCCNC)cc1)c1ccccc1	growth	1.29% (active)
O=C(/C=C\c1ccc2ccccc2n1)c1cc(Cl)ccc1O	growth	71.6% (inactive)
CCCCCCCCOC(=O)CC[C@@H](C)[C@H]1CC[C@H]2[C@@H]3[C@H](OC(=O)CCN)C[C@@H]4C[C@H](OC(=O)CCN)CC[C@]4(C)[C@H]3C[C@H](OC(=O)CCN)[C@]12C	growth	69.7% (inactive)
COC(=O)[C@@H]1CC[C@]2(C)[C@H](CC[C@@H]3O[C@@]32C)[C@@]1(C)CC(=O)c1ccoc1	growth	103% (inactive)
COc1ccc(C(=O)/C=C/c2c[n+](=O)c3ccc(F)cc3n2[O-])cc1	growth	96.8% (inactive)
C=C1CCC2C3(C)COC(C)(C)OC3CCC2(C)C1C/C=C1/C(=O)OCC1OC(C)=O (centres undefined)	growth	63.4% (inactive)
CC/C(Cc1ccccc1)=C(/c1ccc(O)cc1)c1ccc(OCCN2CCCC2)cc1	growth	9.94% (active)

Every entry's value here was drawn from PubChem BioAssay (NCI).
